Hello, the source for this data is ChEMBL document CHEMBL3272315, in case you need it.

# TEST_DESCRIPTION: Antagonist activity at angiotensin AT2 receptor in isolated cat adrenal medulla
# Type: tissue-based, Felis catus
Non-standard residues stand in square brackets, D forms with d. Residues, ends and D or L forms follow the SMILES beside them. Sar = CNCC(=O)O
EXPERIMENTAL_ENDPOINT: pA2
Could you respond with only the numeric value?

Some molecules with known pA2 results, for comparison:
Find the measured pA2 of CC[C@H](C)[C@H](NC(=O)[C@@H]1CCCN1C(=O)[C@H](Cc1c[nH]cn1)NC(=O)[C@@H](NC(=O)[C@H](Cc1ccc(O)cc1)NC(=O)[C@@H](NC(=O)[C@H](CCCN=C(N)N)NC(=O)CNC)C(C)C)[C@@H](C)CC)C(=O)O and report it. 9.5

Find the measured pA2 of CC[C@H](C)[C@H](NC(=O)[C@@H]1CCCN1C(=O)[C@H](Cc1c[nH]cn1)NC(=O)[C@H]([C@@H](C)CC)N(C)C(=O)[C@H](Cc1ccc(O)cc1)NC(=O)[C@@H](NC(=O)[C@H](CCCN=C(N)N)NC(=O)CNC)C(C)C)C(=O)O and report it. 9.31

Find the measured pA2 of CC[C@H](C)[C@H](NC(=O)[C@H](Cc1ccc(O)cc1)NC(=O)[C@@H](NC(=O)[C@H](CCCN=C(N)N)NC(=O)CNC)C(C)C)C(=O)N[C@@H](Cc1c[nH]cn1)C(=O)N1CCC[C@H]1C(=O)N[C@H](C(=O)O)[C@@H](C)O (H-[Sar]RVYIHPT-OH) and report it. 9

Now turn to the next molecule.
Find the measured pA2 of CC[C@H](C)[C@H](NC(=O)[C@@H]1CCCN1C(=O)[C@H](Cc1cnc[nH]1)NC(=O)[C@@H](NC(=O)[C@H](Cc1ccc(O)cc1)N(C)C(=O)[C@@H](NC(=O)[C@H](CCCNC(=N)N)NC(=O)CNC)C(C)C)[C@@H](C)CC)C(=O)O and report it. 9.16
